In this section, each of the compounds is paired with its reported Vmax ± SEM.
target: OCT1 (Homo sapiens); assay: Stereoselective uptake into OCT1-overexpressing HEK293 cells; details: HEK293 cells overexpressing human OCT1; racemic substrate, two minutes; net uptake
Sequence (O15245 whole entry): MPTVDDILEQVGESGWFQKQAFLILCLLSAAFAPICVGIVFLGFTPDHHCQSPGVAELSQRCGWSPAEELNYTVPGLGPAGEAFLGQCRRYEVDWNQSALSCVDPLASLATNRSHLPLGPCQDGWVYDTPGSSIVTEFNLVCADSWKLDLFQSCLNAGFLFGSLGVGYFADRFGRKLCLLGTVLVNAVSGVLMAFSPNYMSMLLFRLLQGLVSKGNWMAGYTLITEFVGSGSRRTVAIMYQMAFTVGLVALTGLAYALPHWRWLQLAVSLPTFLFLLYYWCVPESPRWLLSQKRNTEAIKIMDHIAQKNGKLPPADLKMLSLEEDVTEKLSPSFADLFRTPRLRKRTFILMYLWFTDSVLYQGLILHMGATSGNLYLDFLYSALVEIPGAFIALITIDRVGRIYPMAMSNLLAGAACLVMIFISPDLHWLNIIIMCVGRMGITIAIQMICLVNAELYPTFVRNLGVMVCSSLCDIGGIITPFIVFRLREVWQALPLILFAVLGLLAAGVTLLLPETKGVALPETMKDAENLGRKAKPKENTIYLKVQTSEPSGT
attributeMeasured: Vmax ± SEM

- NC[C@@H](O)c1ccccc1 [(S)-Bisnorephedrine]: 184 pmol × mg Protein^−1 × min^−1
- NC[C@@H](O)c1ccc(O)c(O)c1 [(S)-Norepinephrine]: 1766 ± 258 pmol × mg Protein^−1 × min^−1
- NC[C@H](O)c1ccc(O)c(O)c1 [(R)-Norepinephrine]: 1524 ± 330 pmol × mg Protein^−1 × min^−1
- C[C@@H]1NCCc2cc(O)c(O)cc21 [Salsolinol-1, Salsolinol]: 1450 pmol × mg Protein^−1 × min^−1
- CNCC(O)c1ccc(O)c(OC)c1 (single isomer, unassigned) [Metanephrine-1, Metanephrine]: 1082 pmol × mg Protein^−1 × min^−1
- CNC[C@@H](O)c1ccc(O)c(O)c1 [(S)-Epinephrine]: 2514 ± 266 pmol × mg Protein^−1 × min^−1
- C[C@@H]1NCCc2cc(O)c(O)cc21 [Salsolinol-2, Salsolinol]: 1426 pmol × mg Protein^−1 × min^−1
- NC[C@H](O)c1ccccc1 [(R)-Bisnorephedrine]: 218 pmol × mg Protein^−1 × min^−1
- CNCC(O)c1ccc(O)c(OC)c1 (single isomer, unassigned) [Metanephrine-2, Metanephrine]: 1018 pmol × mg Protein^−1 × min^−1

* * *

system: OCT2 A270S variant; assay: in vitro; conditions: human, Stereoselectivity OCT2_A270S, 100 μM racemic substance, two minutes; uptake ratio of enantiomers, given as for (S);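 further: uptake into HEK293 cells stably overexpressing human OCT2 variants, intracellular enantiomers quantified by chiral HPLC-MS/MS and normalized to total protein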
attributeMeasured: selectivity ratio at 2 min, 100 μM

• CC1NCCc2cc(O)c(O)cc21 (centres unmarked) = 1.1
• NCC(O)c1ccccc1 (centres unmarked) = 1.09

* * *

Readings of Stereoselectivity Vmax for the listed compounds
biological target: UniProtKB P23975; assay: Stereoselective uptake into NET-overexpressing HEK293 cells; settings: NET; ratio between enantiomers, given as for (R) or for 1;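 further: intracellular enantiomers quantified in cell lysates by chiral HPLC-MS/MS after a 2 min substrate incubation, with uptake normalized to total cellular protein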
Sequence (P23975 whole entry): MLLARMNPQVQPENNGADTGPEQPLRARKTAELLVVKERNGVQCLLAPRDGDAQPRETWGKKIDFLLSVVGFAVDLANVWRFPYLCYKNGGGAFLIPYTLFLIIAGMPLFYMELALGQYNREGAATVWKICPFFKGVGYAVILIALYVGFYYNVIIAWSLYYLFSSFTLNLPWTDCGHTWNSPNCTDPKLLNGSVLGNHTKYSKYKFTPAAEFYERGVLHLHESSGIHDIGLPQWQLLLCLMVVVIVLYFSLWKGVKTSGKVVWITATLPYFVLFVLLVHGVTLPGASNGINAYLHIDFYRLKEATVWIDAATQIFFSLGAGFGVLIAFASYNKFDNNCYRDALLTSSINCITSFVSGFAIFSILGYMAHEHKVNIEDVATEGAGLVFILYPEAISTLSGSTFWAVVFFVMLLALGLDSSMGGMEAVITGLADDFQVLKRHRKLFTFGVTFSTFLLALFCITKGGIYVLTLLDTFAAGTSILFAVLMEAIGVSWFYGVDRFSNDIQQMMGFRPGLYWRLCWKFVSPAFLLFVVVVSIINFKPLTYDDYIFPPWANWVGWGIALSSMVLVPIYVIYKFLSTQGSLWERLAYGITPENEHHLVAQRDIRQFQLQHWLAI
attributeMeasured: Stereoselectivity Vmax (fold)

• NC[C@@H](O)c1ccc(O)cc1 [(S)-Octopamine] = 1.30
• CNC[C@@H](O)c1ccc(O)cc1 [(S)-Synephrine] = 1.80
• CNC[C@H](O)c1cccc(O)c1 [(R)-Phenylephrine] = 1.79
• COc1cc(C(O)CN)ccc1O (single isomer, unassigned) [Normetanephrine-1, Normetanephrine] = 1.06
• NC[C@H](O)c1ccc(O)cc1 [(R)-Octopamine] = 1.30
• CNC[C@H](O)c1ccc(O)cc1 [(R)-Synephrine] = 1.80
• CNC[C@@H](O)c1cccc(O)c1 [(S)-Phenylephrine] = 1.79
• COc1cc(C(O)CN)ccc1O (single isomer, unassigned) [Normetanephrine-2, Normetanephrine] = 1.06

* * *

biological target: OCT1 (Homo sapiens); assay: Stereoselective uptake into OCT1-overexpressing HEK293 cells; details: human, Stereoselectivity Vmax, OCT1; ratio between enantiomers, given as for (R) or for 1;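 further: enantiomers quantified inside cells by chiral HPLC-MS/MS, uptake normalized to total protein from bicinchoninic acid assay, substrates applied in HBSS+ buffer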
attributeMeasured: selectivity ratio at 2 min

* NCC(O)c1cccc(O)c1 (single isomer, unassigned) | 1.08
* CNCC(O)c1ccc(O)c(OC)c1 (single isomer, unassigned) | 1.06
* CNC[C@H](O)c1ccc(O)cc1 [(R)-Synephrine] | 1.35
* CNC[C@@H](O)c1cccc(O)c1 [(S)-Phenylephrine] | 1.08
* CNC[C@H](O)c1cccc(O)c1 [(R)-Phenylephrine] | 1.08
* COc1cc(C(O)CN)ccc1O (single isomer, unassigned) | 1.47
* CNC[C@@H](O)c1ccc(O)cc1 [(S)-Synephrine] | 1.35
